Organism: Rattus norvegicus
Experiment: DrugMatrix - Regimen: Daily Repeat
Format: toxicity, organism-based, Sprague-Dawley
Design: regimen Daily Repeat, gender Male, age 6-8 weeks
Conditions: in vivo, po, 0 mg/kg, 120 h, tissue Plasma, route oral GAVAGE, dose level Control, time 5 day, vehicle .5 % CMC
So I've got a bunch of compounds here, and I need their TOTAL PROTEIN values.
One number for each entry, in G/DL.

Hi team, please reply with TOTAL PROTEIN for each item in this list.
1. NCCCC(O)(P(=O)(O)O)P(=O)(O)O [ALENDRONIC ACID]
2. C[C@H]1O[C@@H](n2cc(F)c(=O)[nH]c2=O)[C@H](O)[C@@H]1O [DOXIFLURIDINE]
3. CCN(CC)CCOc1ccc(/C(=C(/Cl)c2ccccc2)c2ccccc2)cc1 [ENCLOMIPHENE]

1: 6.55; 2: 6.02; 3: 5.98

Hi team, please reply with TOTAL PROTEIN for each item in this list.
1. CN/C(=N/CCSCc1nc[nH]c1C)NC#N [CIMETIDINE]
2. CN(C/C=C/C#CC(C)(C)C)Cc1cccc2ccccc12 [TERBINAFINE]

1: 6.02; 2: 6.33

---

Species: Rattus norvegicus
Test: DrugMatrix - Regimen: Daily Repeat
Type: toxicity, organism-based, Sprague-Dawley
Design: regimen Daily Repeat, gender Male, age 6-8 weeks
Settings: in vivo, po, 10 mg/kg, 120 h, tissue Blood, route oral GAVAGE, dose level Low, time 5 day, vehicle .5 % CMC
So I've got a bunch of compounds here, and I need their MEAN CORPUSCULAR HEMOGLOBIN values.
Respond with a number, then the unit of measure.

Observe how each entry below is paired with its result.
- compound: "O=C1C(CC[S+]([O-])c2ccccc2)C(=O)N(c2ccccc2)N1c1ccccc1 (centres undefined)"
  assay-readout: "MEAN CORPUSCULAR HEMOGLOBIN"
  result: "24.77 pg"
- compound: "CNCCC(Oc1ccc(C(F)(F)F)cc1)c1ccccc1 (centres undefined)"
  assay-readout: "MEAN CORPUSCULAR HEMOGLOBIN"
  result: "23.1 pg"

Hi team, please reply with MEAN CORPUSCULAR HEMOGLOBIN for each item in this list.
1. O=C1CN=C(c2ccccc2Cl)c2cc([N+](=O)[O-])ccc2N1
2. Fc1ccc(C(c2ccc(F)cc2)N2CCN(C/C=C/c3ccccc3)CC2)cc1

24.13 pg
25.13 pg

---

Organism: Rattus norvegicus
Test: DrugMatrix - Regimen: Daily Repeat
Type: toxicity, organism-based, Sprague-Dawley
Parameters: regimen Daily Repeat, gender Male, age 6-8 weeks
Details: in vivo, po, 0 mg/kg, 120 h, tissue Blood, route oral GAVAGE, dose level Control, time 5 day, vehicle .5 % CMC
So I've got a bunch of compounds here, and I need their HEMOGLOBIN values.
Give bare numbers, in G/DL.

Observe how each entry below is paired with its result.
- compound: "O=C1C(CC[S+]([O-])c2ccccc2)C(=O)N(c2ccccc2)N1c1ccccc1 (centres undefined)"
  HEMOGLOBIN / G/DL: 13.22
- compound: "COc1ccc(C2C(=O)c3ccccc3C2=O)cc1"
  HEMOGLOBIN / G/DL: 15.83
- compound: "COc1cc2nc(N3CCN(C(=O)c4ccco4)CC3)nc(N)c2cc1OC"
  HEMOGLOBIN / G/DL: 13.22
- compound: "CC(C(=O)O)c1ccc2oc(-c3ccc(Cl)cc3)nc2c1 (centres undefined)"
  HEMOGLOBIN / G/DL: 14.26
- compound: "CN(C/C=C/C#CC(C)(C)C)Cc1cccc2ccccc12"
  HEMOGLOBIN / G/DL: 15.24
- compound: "CN/C(=N/CCSCc1nc[nH]c1C)NC#N"
  HEMOGLOBIN / G/DL: 13.63
- compound: "NC1CCN(c2nc3c(cc2F)c(=O)c(C(=O)O)cn3-c2ccc(F)cc2F)C1 (centres undefined)"
  HEMOGLOBIN / G/DL: 15.24
- compound: "C[C@H]1O[C@@H](n2cc(F)c(=O)[nH]c2=O)[C@H](O)[C@@H]1O"
  HEMOGLOBIN / G/DL: 13.63

I would be grateful if you could share the reported HEMOGLOBIN for COC1=C(OC)C(=O)C(CCCCCCCCCCO)=C(C)C1=O .
13.63

---

Organism: Rattus norvegicus
Experiment: DrugMatrix - Regimen: Daily Repeat
Assay type: toxicity, organism-based, Sprague-Dawley
Parameters: regimen Daily Repeat, gender Male, age 6-8 weeks
Conditions: in vivo, po, 0 mg/kg, 120 h, tissue Plasma, route oral GAVAGE, dose level Control, time 5 day, vehicle .5 % CMC
assay-readout: BLOOD UREA NITROGEN (mg/dL)
Answers are plain numbers, in mg/dL.

- molecule: "Cn1c(=O)c2c(ncn2CC(O)CO)n(C)c1=O (stereo not given)"
  BLOOD UREA NITROGEN [mg/dL]: 17.67
- molecule: "COC1=C(OC)C(=O)C(CCCCCCCCCCO)=C(C)C1=O"
  BLOOD UREA NITROGEN [mg/dL]: 17

Hi team, please reply with BLOOD UREA NITROGEN for each item in this list.
1. NCCCC(O)(P(=O)(O)O)P(=O)(O)O
2. Clc1ccccc1CN1CCc2sccc2C1
3. CNCCC(Oc1ccc(C(F)(F)F)cc1)c1ccccc1 (stereo not given)

1: 18.67; 2: 18.67; 3: 16.33

---

Species on record: Rattus norvegicus
Test: DrugMatrix - Regimen: Daily Repeat
Assay type: toxicity, organism-based, Sprague-Dawley
Design: regimen Daily Repeat, gender Male, age 6-8 weeks
Details: in vivo, po, 0 mg/kg, 120 h, tissue Blood, route oral GAVAGE, dose level Control, time 5 day, vehicle 100 % WATER
Field: label. Allowed values: Condition met (MONOCYTE < 1%) or Condition not met (MONOCYTE >= 1%).

Just wondering, is MONOCYTE of CN(C)CC[C@@H](c1ccc(Cl)cc1)c1ccccn1 [DEXCHLORPHENIRAMINE] below 1%?
Condition met

Input CC(C)NCC(O)c1ccc(NS(C)(=O)=O)cc1 (configuration not stated) [SOTALOL]
Condition met

Input Oc1cccc(O)c1O [PYROGALLOL]
Condition not met

Input Cn1c(=O)c2[nH]cnc2n(C)c1=O.O [THEOPHYLLINE]
Condition met

Input CS(=O)(=O)c1ccc([C@@H](O)[C@@H](CO)NC(=O)C(Cl)Cl)cc1 [THIAMPHENICOL]
Condition met

Input NNc1nncc2ccccc12 [HYDRALAZINE]
Condition not met

---

Species on record: Rattus norvegicus
Test: DrugMatrix - Regimen: Daily Repeat
Type: toxicity, organism-based, Sprague-Dawley
Parameters: regimen Daily Repeat, gender Male, age 6-8 weeks
Conditions: in vivo, po, 50 mg/kg, 72 h, tissue Plasma, route oral GAVAGE, dose level Low, time 3 day, vehicle .5 % CMC
So I've got a bunch of compounds here, and I need their CREATININE values.

- compound: "NC1CCN(c2nc3c(cc2F)c(=O)c(C(=O)O)cn3-c2ccc(F)cc2F)C1 (centres undefined) [TOSUFLOXACIN]"
  CREATININE: "0.53 mg/dL"
- compound: "CCN1CCC[C@H]1CNC(=O)c1cc(S(N)(=O)=O)ccc1OC [LEVOSULPIRIDE]"
  CREATININE: "0.5 mg/dL"
- compound: "Cc1cccc(C)c1OCC(C)N (centres undefined) [MEXILETINE]"
  CREATININE: "0.18 mg/dL"

Proceed to the following item.
I would be grateful if you could share the reported CREATININE for CN(C)[C@@H]1C(O)=C(C(N)=O)C(=O)[C@@]2(O)C(O)=C3C(=O)c4c(O)ccc(Cl)c4[C@@](C)(O)[C@H]3C[C@@H]12 [CHLORTETRACYCLINE] .
0.15 mg/dL

---

So I've got a bunch of compounds here, and I need their SODIUM values.
Organism: Rattus norvegicus
Assay: DrugMatrix - Regimen: Daily Repeat
Type: toxicity, organism-based, Sprague-Dawley
Design: regimen Daily Repeat, gender Male, age 6-8 weeks
Details: in vivo, po, 0 mg/kg, 72 h, tissue Plasma, route oral GAVAGE, dose level Control, time 3 day, […]
Respond with a number, then the unit of measure.

Observe how each entry below is paired with its result.
- compound: "CO[C@H]1/C=C/O[C@@]2(C)Oc3c(C)c(O)c4c(O)c(c(/C=N/N5CCN(C6CCCC6)CC5)c(O)c4c3C2=O)NC(=O)/C(C)=C\\C=C\\[C@H](C)[C@H](O)[C@@H](C)[C@@H](O)[C@@H](C)[C@H](OC(C)=O)[C@@H]1C"
  SODIUM: "144.37 MEQ/L"
- compound: "CC(C)(C)NC(=O)[C@H]1CC[C@H]2[C@@H]3CC[C@H]4NC(=O)C=C[C@]4(C)[C@H]3CC[C@]12C [FINASTERIDE]"
  SODIUM: "141.03 MEQ/L"
- compound: "COc1cc(N)c(Cl)cc1C(=O)NC1CCN(CCCOc2ccc(F)cc2)CC1OC (centres undefined) [CISAPRIDE]"
  SODIUM: "137.67 MEQ/L"

I would be grateful if you could share the reported SODIUM for Clc1ccc(COC(Cn2ccnc2)c2ccc(Cl)cc2Cl)cc1 (centres undefined) .
142.83 MEQ/L
